# method.notes: Pharmacokinetics in male rats (LC-MS/MS)
# Format: in vivo
# condition.context: SD, rat, plasma, iv, 5 mg/kg
readout.kind: Cmax

CC1(C)CCC2(C(=O)NO)CCC3(C)C(C(=O)C=C4C5(C)C=C(C#N)C(=O)C(C)(C)C5CCC43C)C2C1 (stereo not shown) yielded Cmax of 2120 ng/mL

* * *

# method.notes: Pharmacokinetics in male rats (LC-MS/MS)
# Type: in vivo
# condition.context: SD, rat, plasma, po, 30 mg/kg, i.g.
readout.kind: AUC(0-t) (ng·h/mL)
Please give a number only; it is taken to be in ng·h/mL.

CC1(C)CCC2(C(=O)NO)CCC3(C)C(C(=O)C=C4C5(C)C=C(C#N)C(=O)C(C)(C)C5CCC43C)C2C1 (stereo not shown) [Cpd.51] yielded AUC(0-t) of 685
